test system: Rattus norvegicus; assay: AUC in rat at 12 mg/kg, iv; assay type: ADME, organism-based, Plasma; set-up: dose 12 mg/kg, route intravenous; details: in vivo
measurement kind: AUC (µM·h)
# output: bare number, implied unit µM·h

In: # lookup: AUC of CN(C(=O)N1CC(c2cc(F)ccc2F)=C[C@@]1(CO)c1ccccc1)C1CCN(CCF)CC1
Out: 9.5

###

tested on: Rattus norvegicus; test: AUC in rat at 1 mg/kg, iv; format: ADME, organism-based, Plasma; design: dose 1 mg/kg, route intravenous; conditions: in vivo
measurement kind: AUC (µM·h)
# output: bare number, implied unit µM·h

In: # lookup: AUC of CN(C(=O)N1CC(c2cc(F)ccc2F)=C[C@@]1(CO)c1ccccc1)C1CCN(CCF)CC1
Out: 0.5

###

test: Aqueous solubility at pH 4.3; format: physicochemical; details: aqueous solution
measurement kind: solubility

In: # lookup: solubility of CN1CC[C@H](N(C)C(=O)N2CC(c3cc(F)ccc3F)=C[C@@]2(CO)c2ccccc2)[C@H](F)C1
Out: > 50 mg/mL

###

Biological target: Kinesin-like protein KIF23 (Homo sapiens, UniProt Q02241)
Sequence (Q02241 whole entry): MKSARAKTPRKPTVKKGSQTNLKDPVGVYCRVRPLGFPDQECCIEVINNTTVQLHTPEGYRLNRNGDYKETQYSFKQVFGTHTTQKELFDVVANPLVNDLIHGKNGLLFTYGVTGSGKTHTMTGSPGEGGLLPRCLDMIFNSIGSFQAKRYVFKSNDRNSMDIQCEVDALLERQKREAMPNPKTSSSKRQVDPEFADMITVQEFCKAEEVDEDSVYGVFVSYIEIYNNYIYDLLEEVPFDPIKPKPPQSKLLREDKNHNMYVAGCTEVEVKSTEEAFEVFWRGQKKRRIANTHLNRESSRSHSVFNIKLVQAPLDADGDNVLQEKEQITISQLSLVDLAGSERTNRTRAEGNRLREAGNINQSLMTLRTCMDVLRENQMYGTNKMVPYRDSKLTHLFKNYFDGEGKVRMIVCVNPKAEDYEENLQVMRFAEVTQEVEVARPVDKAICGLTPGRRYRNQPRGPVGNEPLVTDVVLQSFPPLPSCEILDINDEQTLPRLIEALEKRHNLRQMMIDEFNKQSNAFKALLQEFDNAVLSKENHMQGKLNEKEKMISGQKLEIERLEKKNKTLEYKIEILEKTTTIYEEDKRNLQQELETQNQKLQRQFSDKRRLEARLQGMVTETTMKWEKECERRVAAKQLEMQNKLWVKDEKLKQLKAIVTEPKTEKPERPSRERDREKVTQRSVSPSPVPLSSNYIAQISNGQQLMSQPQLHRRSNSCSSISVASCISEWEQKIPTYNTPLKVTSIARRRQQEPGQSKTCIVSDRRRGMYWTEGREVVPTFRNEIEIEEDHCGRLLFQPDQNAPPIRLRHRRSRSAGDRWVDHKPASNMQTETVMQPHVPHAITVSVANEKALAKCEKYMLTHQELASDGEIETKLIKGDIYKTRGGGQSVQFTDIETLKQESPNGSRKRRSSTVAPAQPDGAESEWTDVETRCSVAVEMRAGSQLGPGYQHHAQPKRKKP
measurement kind: IC50

In: # lookup: IC50 of CN1CC[C@H](N(C)C(=O)N2CC(c3cc(F)ccc3F)=C[C@@]2(CO)c2ccccc2)[C@H](F)C1
Out: > 50 µM

From: ChEMBL document CHEMBL1155077
